- assay-info: Microsome stability in pooled mouse liver microsomes
- Type: in vitro ADME
- assay-setup: in vitro intrinsic clearance, 3 μM compound, 0.5 mg/mL microsome protein, 1 mM NADPH, N=3, read-out: CLint (μL/minutes/mg protein)
result-type: microsomal CLint at 3 μM
Number plus unit, in that order.

Look over these answered cases.
- smiles-input: "Cn1c(Cl)ccc1C(=O)NCc1c(F)cccc1Cl"
  result: "89.8 µL/min/mg"
- smiles-input: "Cn1c(C#N)ccc1C(=O)NCc1c(F)cccc1Cl"
  result: "32.8 µL/min/mg"

Return reported microsomal CLint at 3 μM values for all items listed beneath this line.
1. C[C@H](NC(=O)c1ccc(C#N)n1C)c1c(F)cccc1Cl
2. Cn1cccc1C(=O)NCc1c(F)cccc1Cl

1: 5.9 µL/min/mg; 2: 80.6 µL/min/mg
